Item-by-item account of pIC50
# Test system: Rat fibroblasts (CREF)
# EXPERIMENTAL_DETAILS: Peg3 promoter luciferase inhibitors, potency, dose response, cell-based, HeLa, CREF/GAPDH counter-screen panel (AID 624167)
# CONDITION_INFO: CREF/GAPDH counter-screens, run 2, dose range 1, individual replicate IC50 per panel
Formally, pIC50 is defined as -log10 of the concentration c, with c in mol/L.

Prompt line: What value of pIC50 has been reported for the following compound? CC(=O)Nc1ccc(NC(=O)c2nc(S(=O)(=O)Cc3cccc(C)c3)ncc2Cl)cc1
Response line: 5.05

Prompt line: What value of pIC50 has been reported for the following compound? CN(C)c1ccc(Nc2nc(N)c3ccccc3n2)cc1
Response line: 5.95

Prompt line: What value of pIC50 has been reported for the following compound? O=C(NCCc1ccccc1)c1ccc2c(c1)OCCCO2
Response line: 6.10

Prompt line: What value of pIC50 has been reported for the following compound? c1cc2c(cc1C1=NNC(=NC3CC3)SC1)OCCO2
Response line: 5.09

Prompt line: What value of pIC50 has been reported for the following compound? CC(=O)N1CCCC(c2cc(C(=O)Nc3ccccc3)no2)C1 (stereo not given)
Response line: 5.01

Prompt line: What value of pIC50 has been reported for the following compound? CCOc1ccc2c(ccc(/C=C/c3cc(C)c4cccnc4c3O)[n+]2C)c1
Response line: 4.93

Prompt line: What value of pIC50 has been reported for the following compound? COc1cc(OC)c2cc(C(=O)N/N=C/c3ccccc3O)[nH]c2c1
Response line: 4.48

Prompt line: What value of pIC50 has been reported for the following compound? Cc1ccc(C(=O)CN2C(=O)c3ccccc3S2(=O)=O)cc1
Response line: 5.06

Prompt line: What value of pIC50 has been reported for the following compound? C(=NNc1ccc2ccccc2n1)c1ccccn1
Response line: 5.81

Prompt line: What value of pIC50 has been reported for the following compound? CCCC(=O)NC(c1ccc(OC)cc1)c1ccc2cccnc2c1O (stereo not given)
Response line: 5.83

Prompt line: What value of pIC50 has been reported for the following compound? O=C(O)c1cccc(COc2ccccc2Cl)c1
Response line: 5.81

Prompt line: What value of pIC50 has been reported for the following compound? Cc1nc(-c2ccc(NC(=O)c3ccco3)cc2)cs1
Response line: 6.36

Prompt line: What value of pIC50 has been reported for the following compound? Cc1ccccc1OCC(O)CNC1CCC(NCC(O)COc2ccccc2C)CC1 (stereo not given)
Response line: 4.90
